Source: patent US8258115B2

The entries below come with measured stability test percentage value (active ingredient %), 720 days values attached.
METHOD: Stability test in thermostated heaters at 25° C. and 60% R.H., active ingredient %
Type: physicochemical
ASSAY CONTEXT: heat-sealed aluminium/aluminium bags, 720 days
Respond with a number, then the unit of measure.

Consider the following illustrative entries.
C[S+](CCC(N)C(=O)[O-])C[C@H]1O[C@@H](n2cnc3c(N)ncnc32)[C@H](O)[C@@H]1O.O=S(=O)(O)O.O=S(=O)(O)O.[Cl-].[Cl-].[Mg+2] (stereo partly shown)	0.62%
C[S+](CCC(N)C(=O)[O-])C[C@H]1O[C@@H](n2cnc3c(N)ncnc32)[C@H](O)[C@@H]1O.C[S+](CCC(N)C(=O)[O-])C[C@H]1O[C@@H](n2cnc3c(N)ncnc32)[C@H](O)[C@@H]1O.O=S(=O)(O)O.[Ca+2].[Cl-].[Cl-] (stereo partly shown)	0.99%
C[S+](CCC(N)C(=O)[O-])C[C@H]1O[C@@H](n2cnc3c(N)ncnc32)[C@H](O)[C@@H]1O.C[S+](CCC(N)C(=O)[O-])C[C@H]1O[C@@H](n2cnc3c(N)ncnc32)[C@H](O)[C@@H]1O.Cl.O=S(=O)([O-])[O-].[Mg+2] (stereo partly shown) [SAMe•0.5HCl•0.5MgSO4]	1.19%

Query: I'd like to know its stability test percentage value (active ingredient %), 720 days. The compound in question is C[S+](CCC(N)C(=O)[O-])C[C@H]1O[C@@H](n2cnc3c(N)ncnc32)[C@H](O)[C@@H]1O.O=S(=O)(O)O.O=S(=O)(O)O.O=S(=O)([O-])[O-].[Mg+2] (stereo partly shown)
Reply: 0.92%

###

percentage of the active S,S stereoisomer remaining values by entry
METHOD: Degradation of the active stereoisomer S,S at 25° C. and 65% R.H.
Format: physicochemical
ASSAY CONTEXT: 360 days
Quick reminder: number only, in %, skip the unit.

Some entries whose results are on file:
C[S+](CCC(N)C(=O)[O-])C[C@H]1O[C@@H](n2cnc3c(N)ncnc32)[C@H](O)[C@@H]1O.Cl.Cl.O=S(=O)([O-])[O-].[Mg+2] (some centres unmarked) [SAMe•2.0HCl•1.0MgSO4]	91.1
C[S+](CCC(N)C(=O)[O-])C[C@H]1O[C@@H](n2cnc3c(N)ncnc32)[C@H](O)[C@@H]1O.Cl.Cl.[Cl-].[Cl-].[Mg+2] (some centres unmarked) [SAMe•2.0HCl•1.0MgCl2]	92.5
C[S+](CCC(N)C(=O)[O-])C[C@H]1O[C@@H](n2cnc3c(N)ncnc32)[C@H](O)[C@@H]1O.C[S+](CCC(N)C(=O)[O-])C[C@H]1O[C@@H](n2cnc3c(N)ncnc32)[C@H](O)[C@@H]1O.Cl.O=S(=O)([O-])[O-].[Mg+2] (some centres unmarked) [SAMe•0.5HCl•0.5MgSO4]	91.6
C[S+](CCC(N)C(=O)[O-])C[C@H]1O[C@@H](n2cnc3c(N)ncnc32)[C@H](O)[C@@H]1O.C[S+](CCC(N)C(=O)[O-])C[C@H]1O[C@@H](n2cnc3c(N)ncnc32)[C@H](O)[C@@H]1O.Cl.[Cl-].[Cl-].[Mg+2] (some centres unmarked) [SAMe•0.5HCl•0.5MgCl2]	92.6
C[S+](CCC(N)C(=O)[O-])C[C@H]1O[C@@H](n2cnc3c(N)ncnc32)[C@H](O)[C@@H]1O.O=S(=O)(O)O.O=S(=O)(O)O.[Ca+2].[Cl-].[Cl-] (some centres unmarked) [SAMe•2.0H2SO4•1.0CaCl2]	91.2
C[S+](CCC(N)C(=O)[O-])C[C@H]1O[C@@H](n2cnc3c(N)ncnc32)[C@H](O)[C@@H]1O.C[S+](CCC(N)C(=O)[O-])C[C@H]1O[C@@H](n2cnc3c(N)ncnc32)[C@H](O)[C@@H]1O.O=S(=O)(O)O.[Ca+2].[Cl-].[Cl-] (some centres unmarked) [SAMe•0.5H2SO4•0.5CaCl2]	90.8
C[S+](CCC(N)C(=O)[O-])C[C@H]1O[C@@H](n2cnc3c(N)ncnc32)[C@H](O)[C@@H]1O.O=S(=O)(O)O.O=S(=O)(O)O.O=S(=O)([O-])[O-].[Mg+2] (some centres unmarked) [SAMe•2.0H2SO4•1.0Mg2SO4•0.4H2O]	91.3

Consider the record given below.
Query: Recorded percentage of the active S,S stereoisomer remaining of C[S+](CCC(N)C(=O)[O-])C[C@H]1O[C@@H](n2cnc3c(N)ncnc32)[C@H](O)[C@@H]1O.O=S(=O)(O)O.O=S(=O)(O)O.[Cl-].[Cl-].[Mg+2] (some centres unmarked) [SAMe•2.0H2SO4•1.0MgCl2] , please.
Reply: 91.0

###

METHOD: Degradation of the active stereoisomer S,S at 25° C. and 65% R.H.
Format: physicochemical
ASSAY CONTEXT: 180 days
PROPERTY: percentage of the active S,S stereoisomer remaining (%)
Kindly answer with a numeric value in %, unit omitted.

Consider the reported percentage of the active S,S stereoisomer remaining for these compounds:
C[S+](CCC(N)C(=O)[O-])C[C@H]1O[C@@H](n2cnc3c(N)ncnc32)[C@H](O)[C@@H]1O.Cl.Cl.[Cl-].[Cl-].[Mg+2] (stereo partly shown) [SAMe•2.0HCl•1.0MgCl2]	94.7
C[S+](CCC(N)C(=O)[O-])C[C@H]1O[C@@H](n2cnc3c(N)ncnc32)[C@H](O)[C@@H]1O.O=S(=O)(O)O.O=S(=O)(O)O.[Ca+2].[Cl-].[Cl-] (stereo partly shown)	93.8
C[S+](CCC(N)C(=O)[O-])C[C@H]1O[C@@H](n2cnc3c(N)ncnc32)[C@H](O)[C@@H]1O.O=S(=O)(O)O.O=S(=O)(O)O.[Cl-].[Cl-].[Mg+2] (stereo partly shown)	93.3
C[S+](CCC(N)C(=O)[O-])C[C@H]1O[C@@H](n2cnc3c(N)ncnc32)[C@H](O)[C@@H]1O.C[S+](CCC(N)C(=O)[O-])C[C@H]1O[C@@H](n2cnc3c(N)ncnc32)[C@H](O)[C@@H]1O.Cl.O=S(=O)([O-])[O-].[Mg+2] (stereo partly shown) [SAMe•0.5HCl•0.5MgSO4]	94.3
C[S+](CCC(N)C(=O)[O-])C[C@H]1O[C@@H](n2cnc3c(N)ncnc32)[C@H](O)[C@@H]1O.O=S(=O)(O)O.O=S(=O)(O)O.O=S(=O)([O-])[O-].[Mg+2] (stereo partly shown)	94.1
C[S+](CCC(N)C(=O)[O-])C[C@H]1O[C@@H](n2cnc3c(N)ncnc32)[C@H](O)[C@@H]1O.C[S+](CCC(N)C(=O)[O-])C[C@H]1O[C@@H](n2cnc3c(N)ncnc32)[C@H](O)[C@@H]1O.O=S(=O)(O)O.[Ca+2].[Cl-].[Cl-] (stereo partly shown)	93.6

Query: Name the reported percentage of the active S,S stereoisomer remaining value associated with the compound C[S+](CCC(N)C(=O)[O-])C[C@H]1O[C@@H](n2cnc3c(N)ncnc32)[C@H](O)[C@@H]1O.C[S+](CCC(N)C(=O)[O-])C[C@H]1O[C@@H](n2cnc3c(N)ncnc32)[C@H](O)[C@@H]1O.O=S(=O)(O)O.O=S(=O)([O-])[O-].[Mg+2] (stereo partly shown)
Reply: 95.6

Query: Quick one: percentage of the active S,S stereoisomer remaining of C[S+](CCC(N)C(=O)[O-])C[C@H]1O[C@@H](n2cnc3c(N)ncnc32)[C@H](O)[C@@H]1O.Cl.Cl.O=S(=O)([O-])[O-].[Mg+2] (stereo partly shown) [SAMe•2.0HCl•1.0MgSO4] ?
Reply: 93.0

Query: Which percentage of the active S,S stereoisomer remaining is reported for this compound? C[S+](CCC(N)C(=O)[O-])C[C@H]1O[C@@H](n2cnc3c(N)ncnc32)[C@H](O)[C@@H]1O.C[S+](CCC(N)C(=O)[O-])C[C@H]1O[C@@H](n2cnc3c(N)ncnc32)[C@H](O)[C@@H]1O.Cl.[Cl-].[Cl-].[Mg+2] (stereo partly shown) [SAMe•0.5HCl•0.5MgCl2]
Reply: 93.7

Query: Consider the compound shown here: C[S+](CCC(N)C(=O)[O-])C[C@H]1O[C@@H](n2cnc3c(N)ncnc32)[C@H](O)[C@@H]1O.C[S+](CCC(N)C(=O)[O-])C[C@H]1O[C@@H](n2cnc3c(N)ncnc32)[C@H](O)[C@@H]1O.O=S(=O)(O)O.[Cl-].[Cl-].[Mg+2] (stereo partly shown) What is its recorded percentage of the active S,S stereoisomer remaining?
Reply: 93.6

###

METHOD: Stability test in thermostated heaters at 25° C. and 60% R.H., active ingredient %
Assay type: physicochemical
ASSAY CONTEXT: heat-sealed aluminium/aluminium bags, 90 days
stability test percentage value (active ingredient %), 90 days overview
API: value field is a number in %; no unit string.

C[S+](CCC(N)C(=O)[O-])C[C@H]1O[C@@H](n2cnc3c(N)ncnc32)[C@H](O)[C@@H]1O.O=S(=O)(O)O.O=S(=O)(O)O.[Cl-].[Cl-].[Mg+2] (stereo partly shown)	0.18
C[S+](CCC(N)C(=O)[O-])C[C@H]1O[C@@H](n2cnc3c(N)ncnc32)[C@H](O)[C@@H]1O.C[S+](CCC(N)C(=O)[O-])C[C@H]1O[C@@H](n2cnc3c(N)ncnc32)[C@H](O)[C@@H]1O.Cl.[Cl-].[Cl-].[Mg+2] (stereo partly shown) [SAMe•0.5HCl•0.5MgCl2]	0.43
C[S+](CCC(N)C(=O)[O-])C[C@H]1O[C@@H](n2cnc3c(N)ncnc32)[C@H](O)[C@@H]1O.Cl.Cl.O=S(=O)([O-])[O-].[Mg+2] (stereo partly shown) [SAMe•2.0HCl•1.0MgSO4]	0.28
C[S+](CCC(N)C(=O)[O-])C[C@H]1O[C@@H](n2cnc3c(N)ncnc32)[C@H](O)[C@@H]1O.O=S(=O)(O)O.O=S(=O)(O)O.[Ca+2].[Cl-].[Cl-] (stereo partly shown)	0.29
C[S+](CCC(N)C(=O)[O-])C[C@H]1O[C@@H](n2cnc3c(N)ncnc32)[C@H](O)[C@@H]1O.O=S(=O)(O)O.O=S(=O)(O)O.O=S(=O)([O-])[O-].[Mg+2] (stereo partly shown)	0.28
C[S+](CCC(N)C(=O)[O-])C[C@H]1O[C@@H](n2cnc3c(N)ncnc32)[C@H](O)[C@@H]1O.C[S+](CCC(N)C(=O)[O-])C[C@H]1O[C@@H](n2cnc3c(N)ncnc32)[C@H](O)[C@@H]1O.Cl.O=S(=O)([O-])[O-].[Mg+2] (stereo partly shown) [SAMe•0.5HCl•0.5MgSO4]	0.46
C[S+](CCC(N)C(=O)[O-])C[C@H]1O[C@@H](n2cnc3c(N)ncnc32)[C@H](O)[C@@H]1O.C[S+](CCC(N)C(=O)[O-])C[C@H]1O[C@@H](n2cnc3c(N)ncnc32)[C@H](O)[C@@H]1O.O=S(=O)(O)O.[Cl-].[Cl-].[Mg+2] (stereo partly shown)	0.25
C[S+](CCC(N)C(=O)[O-])C[C@H]1O[C@@H](n2cnc3c(N)ncnc32)[C@H](O)[C@@H]1O.C[S+](CCC(N)C(=O)[O-])C[C@H]1O[C@@H](n2cnc3c(N)ncnc32)[C@H](O)[C@@H]1O.O=S(=O)(O)O.O=S(=O)([O-])[O-].[Mg+2] (stereo partly shown)	0.45

Query: Fill in the blank: the reported stability test percentage value (active ingredient %), 90 days of C[S+](CCC(N)C(=O)[O-])C[C@H]1O[C@@H](n2cnc3c(N)ncnc32)[C@H](O)[C@@H]1O.Cl.Cl.[Cl-].[Cl-].[Mg+2] (stereo partly shown) [SAMe•2.0HCl•1.0MgCl2] is ____.
Reply: 0.37

Query: Could you share which stability test percentage value (active ingredient %), 90 days value was measured for C[S+](CCC(N)C(=O)[O-])C[C@H]1O[C@@H](n2cnc3c(N)ncnc32)[C@H](O)[C@@H]1O.C[S+](CCC(N)C(=O)[O-])C[C@H]1O[C@@H](n2cnc3c(N)ncnc32)[C@H](O)[C@@H]1O.O=S(=O)(O)O.[Ca+2].[Cl-].[Cl-] (stereo partly shown) ?
Reply: 0.35
